# assay.details: Pharmacokinetics after intra-duodenal injection (ID) in anesthetized rats, model mimicking enteric-coated oral dosage form, plasma LC-MS
# Type: in vivo, rat
# run.conditions: rat, plasma, other: intra-duodenal injection (ID), 3 mg, pH 3.5, ID 0.3 ml B [10 mg/ml, 10 mg/ml LLC, 400 mM Citrate pH 3.5, 150 mM NaCl]; individual rats; read-out: Tmax (converted)

{"entry.smiles": "CC[C@H](C)[C@H](NC(=O)[C@H](Cc1ccc(O)cc1)NC(=O)[C@@H](NC(=O)[C@H](CCCNC(=N)N)NC(=O)[C@@H](N)CC(=O)O)C(C)C)C(=O)N[C@@H](Cc1c[nH]cn1)C(=O)N1CCC[C@H]1C(=O)O", "Tmax / min": 5}
